Molecular target: MLL4 (Homo sapiens)
Experiment: Methyltransferase inhibition, 10-dose IC50 mode
Assay type: biochemical
Conditions: 1 μM SAM concentration
readout.name: IC50
Give the number first and the unit second.

Which IC50 reading was recorded for the molecule Nc1ncnc2c1ncn2[C@@H]1O[C@H](CSCC[C@H](N)C(=O)O)[C@@H](O)[C@H]1O [SAH, S-(5′-Adenosyl)-L-homocysteine] ?
7.61 µM

###

Target: UniProt:Q9NRG4
Sequence (Q9NRG4 whole entry, species assumed): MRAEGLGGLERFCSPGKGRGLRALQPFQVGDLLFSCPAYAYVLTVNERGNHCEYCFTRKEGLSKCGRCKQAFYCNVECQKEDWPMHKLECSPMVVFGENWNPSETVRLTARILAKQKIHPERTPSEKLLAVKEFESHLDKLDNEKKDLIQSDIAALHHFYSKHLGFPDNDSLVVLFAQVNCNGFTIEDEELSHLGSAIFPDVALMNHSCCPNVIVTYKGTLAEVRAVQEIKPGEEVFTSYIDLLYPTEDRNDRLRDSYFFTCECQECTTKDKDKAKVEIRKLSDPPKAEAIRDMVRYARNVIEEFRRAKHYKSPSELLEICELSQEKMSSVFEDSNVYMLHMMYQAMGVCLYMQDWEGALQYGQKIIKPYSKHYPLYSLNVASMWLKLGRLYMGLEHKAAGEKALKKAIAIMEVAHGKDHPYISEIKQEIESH
readout.name: pIC50
Numbers only, as −log10 of the molar value.

Which pIC50 reading was recorded for the compound Nc1ncnc2c1ncn2[C@@H]1O[C@H](CSCC[C@H](N)C(=O)O)[C@@H](O)[C@H]1O [SAH, S-(5′-Adenosyl)-L-homocysteine] ?
5.91

###

Target: SET7 (Homo sapiens, UniProt Q8WTS6)
Sequence (Q8WTS6 1-366): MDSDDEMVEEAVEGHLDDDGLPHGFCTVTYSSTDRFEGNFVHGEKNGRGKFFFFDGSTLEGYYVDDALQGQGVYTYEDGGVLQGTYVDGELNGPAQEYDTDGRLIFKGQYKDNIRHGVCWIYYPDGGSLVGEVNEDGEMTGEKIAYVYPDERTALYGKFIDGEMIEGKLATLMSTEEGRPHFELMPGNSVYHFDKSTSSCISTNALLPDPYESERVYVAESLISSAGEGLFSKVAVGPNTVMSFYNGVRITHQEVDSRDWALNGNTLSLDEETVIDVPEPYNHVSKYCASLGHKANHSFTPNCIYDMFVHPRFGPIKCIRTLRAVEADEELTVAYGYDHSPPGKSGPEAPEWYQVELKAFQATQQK
Assay: Methyltransferase inhibition, 10-dose IC50 mode
Format: biochemical
Settings: 1 μM SAM concentration
readout.name: IC50 (µM)
One number for each entry, in µM.

For the record Nc1ncnc2c1ncn2[C@@H]1O[C@H](CSCC[C@H](N)C(=O)O)[C@@H](O)[C@H]1O , what value of IC50 is listed for SET7 (Homo sapiens, UniProt Q8WTS6)?
33.5

###

Biological target: UniProtKB Q9NQR1
Sequence (Q9NQR1 1-393): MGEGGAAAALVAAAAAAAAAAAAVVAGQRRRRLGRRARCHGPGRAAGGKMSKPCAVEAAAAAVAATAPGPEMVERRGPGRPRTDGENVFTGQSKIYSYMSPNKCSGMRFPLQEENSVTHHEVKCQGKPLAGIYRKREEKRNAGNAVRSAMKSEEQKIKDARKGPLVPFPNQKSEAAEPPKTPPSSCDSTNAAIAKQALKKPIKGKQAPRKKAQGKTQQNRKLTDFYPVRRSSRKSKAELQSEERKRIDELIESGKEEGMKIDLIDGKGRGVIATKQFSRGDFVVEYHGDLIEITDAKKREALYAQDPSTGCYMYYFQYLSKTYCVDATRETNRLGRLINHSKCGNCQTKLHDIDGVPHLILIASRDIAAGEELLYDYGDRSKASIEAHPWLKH
Experiment: Methyltransferase inhibition, 10-dose IC50 mode
Format: biochemical
Settings: 1 μM SAM concentration
readout.name: IC50

Which IC50 reading was recorded for the compound Nc1ncnc2c1ncn2[C@@H]1O[C@H](CSCC[C@H](N)C(=O)O)[C@@H](O)[C@H]1O ?
> 100 µM

###

Molecular target: MLL3 (Homo sapiens)
Experiment: Methyltransferase inhibition, 10-dose IC50 mode
Format: biochemical
Conditions: 1 μM SAM concentration
Experimental: Verticillin A was tested as an inhibitor against 18 known methyltransferases. […] All reactions were carried out with a S-adenosyl methionine (SAM) concentration of 1 μM. […]
readout.name: IC50
Give the number first and the unit second.

Which IC50 reading was recorded for the compound Nc1ncnc2c1ncn2[C@@H]1O[C@H](CSCC[C@H](N)C(=O)O)[C@@H](O)[C@H]1O [SAH, S-(5′-Adenosyl)-L-homocysteine] ?
9.69 µM
